Assay: Components of the Cytosolic LPS Sensing Pathway: Gene Identification via Genome-wide siRNA Screen;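 note: robust z of the log signal after scaling to non-targeting control siRNA wells of the plate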
Conditions: RAW264.7 macrophages, IL-1a HTRF, actives lie on both sides, screened at 100 nM (by protocol), cells primed 5 h with Pam3CSK4 first
Among all 53,000 sequences or so, about 3,700 (7%) were called active. The sample as a whole holds a higher share of actives than the screen did.
# cutoff 0.6 applies to z-score; >= gives true (1), < gives false (0)

Illustrative cases are given below, each with its answer.
seq string | category
GGAAGUUUACCAGUCUAUCTT against Pik3c2a | true (1)
CCUUGGGACAAGCAUAUAUTT against Psg25 | true (1)

Problem: Is z-score at least 0.6? Consider GGUCUACUGACUCAAAGUCTT against Mrps33
Result: true (1)

Problem: Is z-score at least 0.6? Consider CCAAGGGUUGCUUCGAGCATT against Upk1a
Result: false (0)

Problem: Is z-score at least 0.6? Consider CCCACAUUGCUUACCUUUCTT against Zfp523
Result: false (0)

Problem: Is z-score at least 0.6? Consider GGAUCUGGAGAAGAUGAUGTT against Ret
Result: false (0)

Problem: Is z-score at least 0.6? Consider GGUAGUAGGAGUUUCCUACTT against 4933414I15Rik
Result: true (1)

====

Assay: Components of the Cytosolic LPS Sensing Pathway: Gene Identification via Genome-wide siRNA Screen;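 note: robust z of the log signal after scaling to non-targeting control siRNA wells of the plate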
Details: RAW264.7 macrophages, IL-1a HTRF, actives lie on both sides, screened at 100 nM (by protocol), cells primed 5 h with Pam3CSK4 first
Out of some 53,000 sequences screened, about 3,700 (7%) were called active. This excerpt belongs to a sample that is enriched for actives.
measured metric: z-score
Numbers only.

seq string | value measured
GGGAACAAGUUGAGCUACUTT against Ebp | -0.0574
GAAGCACAACCUCGGCUUUTT against AY074887 | 0.448
CCCGUAAGGUAACAAACCGTT against Polr3k | -1.14
GCCUUUUAGCUGUUCAGGATT against Nlrc5 | 1.83
GGCGAGAAGGAAAUGUACATT against Arpc3 | 2.62

Continue with the next sequence.
Problem: Bench note: what z-score did GGCCCAAGAGAAUAUCCAGTT against Gm6460 show?
Result: 0.281

====

Test: Components of the Cytosolic LPS Sensing Pathway: Gene Identification via Genome-wide siRNA Screen;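 note: robust z of the log signal after scaling to non-targeting control siRNA wells of the plate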
Settings: RAW264.7 macrophages, IL-1a HTRF, actives lie on both sides, screened at 100 nM (by protocol), cells primed 5 h with Pam3CSK4 first
In all, about 53,000 sequences went through this assay and about 3,700 (7%) were called active.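 How the source made its calls: active means gene knockdowns whose robust z-score for IL-1 alpha signal is at least 2 or at most -2, so actives lie on both sides; inactive means the rest.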 The entries come from a sample that favours actives as a whole.
Respond using exactly one of the listed classes: active, inactive

Illustrative cases are given below, each with its answer.
seq string | category
GGCUAUAGGUUUCUGGGAATT against Fzd6 | active
CCUCACCCUUUCCAAAAAATT against Polr2f | inactive
GCCCAUGACCAGUUCAAGUTT against Actn4 | inactive
GCUCGCUAAAGUGAUUAAATT against Gm5533 | inactive
CCUGAUCUUAAACAAAGAATT against 2610507B11Rik | inactive

Problem: GET /call?item= GGCCACAGGAAGUCAGUUATT against Gsk3b returns the recorded outcome of this test.
Result: inactive

Problem: GET /call?item= GGUCCAUACUCCUAAAGAATT against Mpzl1 returns the recorded outcome of this test.
Result: inactive

Problem: GET /call?item= GGCACCUAUGAGGUUCUAUTT against Sec16b returns the recorded outcome of this test.
Result: inactive

Problem: GET /call?item= GCGUAGACUUGAGGACUUATT against Uimc1 returns the recorded outcome of this test.
Result: inactive

Problem: GET /call?item= GGUUCGACUUUCUUUGCCATT against Ola1 returns the recorded outcome of this test.
Result: inactive

Problem: GET /call?item= GCCCAAGAAUGUGCCUUAUTT against Olfr1278 returns the recorded outcome of this test.
Result: inactive

Problem: GET /call?item= CCCAUAGCUAAUGAACCAATT against Sntg2 returns the recorded outcome of this test.
Result: inactive

Value source: PubChem BioAssay AID1508600
